Target: Mutant CD33-GFP JS24 (Q24E) on 293FT cells (UniProt P20138)
Sequence (P20138 18-364 Q24E): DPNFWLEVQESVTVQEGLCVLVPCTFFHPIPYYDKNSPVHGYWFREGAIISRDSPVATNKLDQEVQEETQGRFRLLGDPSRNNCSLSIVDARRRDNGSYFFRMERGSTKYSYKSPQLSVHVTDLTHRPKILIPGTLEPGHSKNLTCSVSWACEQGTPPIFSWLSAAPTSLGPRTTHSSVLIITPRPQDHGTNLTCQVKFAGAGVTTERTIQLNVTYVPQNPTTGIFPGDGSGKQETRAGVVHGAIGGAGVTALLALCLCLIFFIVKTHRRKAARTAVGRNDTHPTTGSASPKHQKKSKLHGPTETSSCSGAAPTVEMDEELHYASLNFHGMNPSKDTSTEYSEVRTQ
Assay: FACS, mutant CD33-GFP on 293FT cells
observation.type: FACS binding data
Reply: number alone, nothing else.

[
  {
    "binder": "sdCD33_5 (VHH, sdAb from a naive llama phage library; also called 413; sdAb413) VHH: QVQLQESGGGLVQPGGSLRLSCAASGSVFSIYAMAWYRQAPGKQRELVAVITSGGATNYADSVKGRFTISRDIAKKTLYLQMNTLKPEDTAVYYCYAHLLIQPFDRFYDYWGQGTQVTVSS",
    "observation.type": "FACS binding data",
    "test.value": 97
  }
]

Now consider the entry below.
FACS binding data reading for sdCD33_8 (VHH, sdAb from a naive llama phage library; also called 424; sdAb424) VHH: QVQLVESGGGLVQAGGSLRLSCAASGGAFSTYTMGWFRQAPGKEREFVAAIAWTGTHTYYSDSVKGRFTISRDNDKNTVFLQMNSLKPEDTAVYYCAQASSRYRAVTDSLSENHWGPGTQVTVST : 99.4
